Test system: HepG2
test-details: cell viability relative to DMSO; higher = less toxic
condition: 72 h; 10 nM
assay-readout: cell viability (%)

>  <molecule>
C=C1/C(=C\C=C2/CCC[C@]3(C)[C@@H]([C@H](C)CCCC(C)(C)O)CC[C@@H]23)C[C@@H](O)C[C@@H]1O [calcitriol]

>  <readout-number>
112

$$$$
>  <molecule>
O=C(Nc1ccc(C(O)(C(F)(F)F)C(F)(F)F)cc1)c1ccc(C(F)(F)F)cc1 [SR-1078]

>  <readout-number>
99.9

$$$$
>  <molecule>
C=C1C[C@]23C[C@@]1(O)CC[C@H]2[C@@]12C=C[C@H](O)[C@@](C)(C(=O)O1)[C@H]2[C@@H]3C(=O)O [MD-920]

>  <readout-number>
107

$$$$
>  <molecule>
Cc1ncc(CN2CC=C(c3ccccc3)CC2)c(N)n1 [Ro-10-5824]

>  <readout-number>
104

$$$$
>  <molecule>
Oc1ccc2c3c1O[C@H]1c4oc5ccccc5c4C[C@@]4(O)[C@@H](C2)N(CC2CC2)CC[C@]314 [naltriben]

>  <readout-number>
120

$$$$
>  <molecule>
Cc1cccc(COc2cccc(/C=C3\C(=O)NN(c4ccccc4)C3=O)c2)c1 [Y16]

>  <readout-number>
93.5

$$$$
>  <molecule>
CC[C@H]1[C@@H](O)[C@@H]2[C@H](CC[C@]3(C)[C@@H]([C@H](C)CCC(=O)O)CC[C@@H]23)[C@@]2(C)CC[C@@H](O)C[C@@H]12 [obeticholic-acid]

>  <readout-number>
102

$$$$
